Source listed as ChEMBL document CHEMBL3808387.

Assay: Tmax in Sprague-Dawley rat at 0.1 mg/kg, iv or 1 mg/kg, po by LC-MS/MS analysis
Type: ADME, organism-based
Details: in vivo
endpoint: Tmax (h)

cpdSmiles: Oc1nc(-c2cc(-c3ccon3)n(Cc3ccccc3F)n2)ncc1F
dataValue: 5.3

###

Assay: Tmax in Beagle dog at 0.1 mg/kg, iv or 1 mg/kg, po by LC-MS/MS analysis
Type: ADME, organism-based, Canis lupus familiaris
Conditions: in vivo

cpdSmiles: Oc1nc(-c2cc(-c3ccon3)n(Cc3ccccc3F)n2)ncc1F
unitsOfMeasure: h
Tmax: 3.3

###

Test: Oral bioavailability in Sprague-Dawley rat at 10 mg/kg by LC-MS/MS analysis
Assay type: ADME, organism-based
Conditions: in vivo

cpdSmiles: Nc1ccnc(-c2cc(-c3ccon3)n(Cc3ccccc3F)n2)n1
bioavailability (%): 53

###

Test: Terminal half-life in Sprague-Dawley rat at 1 mg/kg, iv by LC-MS/MS analysis
Type: ADME, organism-based
Settings: in vivo, read-out: beta t1/2

cpdSmiles: Nc1ccnc(-c2cc(-c3ccon3)n(Cc3ccccc3F)n2)n1
half-life / min: 26

###

Assay: Oral bioavailability in CD-1 mouse at 1 mg/kg by LC-MS/MS analysis
Assay type: ADME, organism-based
Conditions: in vivo

cpdSmiles: Oc1nc(-c2cc(-c3ccon3)n(Cc3ccccc3F)n2)ncc1F
bioavailability: > 100%

###

Assay: Intrinsic clearance in human liver microsomes assessed per mg of protein at 2 uM after 10 to 30 mins by LC/MS/MS analysis in presence of NADPH
Assay type: ADME
Details: read-out: CLH
Recorded microsomal CLint at 2 µM values for a group of compounds are listed next.
endpoint: microsomal CLint at 2 µM (µL/min/mg)

cpdSmiles: O=c1[nH]c(-c2cc(-c3ccon3)n(Cc3ccc(F)cc3F)n2)ncc1F
dataValue: 4

cpdSmiles: Oc1nc(-c2cc(-c3ncco3)n(Cc3ccccc3F)n2)ncc1F
dataValue: 42

cpdSmiles: Cc1nc(-c2cc(-c3ccon3)n(Cc3ccccc3F)n2)nc(O)c1F
dataValue: 9

cpdSmiles: Cc1cc(-c2cc(-c3ncc(F)c(O)n3)nn2Cc2ccccc2F)no1
dataValue: 118

cpdSmiles: Nc1ccnc(-c2cc(-c3ccon3)n(Cc3ccccc3F)n2)n1
dataValue: 10

cpdSmiles: Oc1nc(-c2cc(-c3ccon3)n(Cc3ccccc3F)n2)ncc1Cl
dataValue: 7

cpdSmiles: Oc1ccnc(-c2cc(-c3ccon3)n(Cc3ccccc3F)n2)n1
dataValue: 12

cpdSmiles: Oc1nc(-c2cc(-c3ccon3)n(Cc3ccccc3F)n2)ncc1C(F)(F)F
dataValue: 19

###

Test: Thermodynamic solubility of the compound at pH 9.2
Format: physicochemical
Conditions: buffer, read-out: Therm_solubility
endpoint: solubility thermodynamic (µg/mL)

cpdSmiles: Oc1nc(-c2cc(-c3ccon3)n(Cc3ccccc3F)n2)ncc1F
unitsOfMeasure: µg/mL
dataValue: 142

###

Test: Cmax in CD-1 mouse at 1 mg/kg, po by LC-MS/MS analysis
Type: ADME, organism-based
Parameters: dose 1 mg/kg, route oral
Details: in vivo
endpoint: Cmax

cpdSmiles: Oc1nc(-c2cc(-c3ccon3)n(Cc3ccccc3F)n2)ncc1F
endpoint: Cmax
dataValue: 1000 ng/mL

###

Target: Soluble guanylate cyclase (Homo sapiens) (UniProt Q02153+O75343+P33402+Q02108)
Assay: Activation of SGC in HEK293 cells assessed as cGMP production at 30 uM after 20 mins by LC-MS/MS analysis in presence of NO-donor DETA-NONOate
Format: cell-based
Please mark fulfilled if the recorded Emax is equal to or greater than 40%, and not fulfilled if it falls below.

cpdSmiles: Oc1nc(-c2cc(-c3ccccn3)n(Cc3ccccc3F)n2)ncc1F
categoryLabel: not fulfilled

cpdSmiles: Oc1nc(-c2cc(-c3ncon3)n(Cc3ccccc3F)n2)ncc1F
categoryLabel: fulfilled

cpdSmiles: Cc1nc(-c2cc(-c3ccon3)n(Cc3ccccc3F)n2)nc(O)c1F
categoryLabel: fulfilled

cpdSmiles: Oc1ccnc(-c2cc(-c3ccon3)n(Cc3ccccc3F)n2)n1
categoryLabel: fulfilled

cpdSmiles: O=C(Nc1cnc(-c2cc(-c3ccon3)n(Cc3ccccc3F)n2)nc1O)c1ccccc1
categoryLabel: fulfilled

cpdSmiles: Oc1nc(-c2cc(C3CC3)n(Cc3ccccc3F)n2)ncc1F
categoryLabel: not fulfilled

cpdSmiles: CN(C)S(=O)(=O)c1cnc(-c2cc(-c3ccon3)n(Cc3ccccc3F)n2)nc1O
categoryLabel: fulfilled

cpdSmiles: Oc1nc(-c2cc(-c3cocn3)n(Cc3ccccc3F)n2)ncc1F
categoryLabel: fulfilled

cpdSmiles: Oc1nc(-c2cc(-c3ccon3)n(Cc3ccccc3F)n2)ncc1C(F)(F)F
categoryLabel: fulfilled

cpdSmiles: Cc1cc(-c2cc(-c3ncc(F)c(O)n3)nn2Cc2ccccc2F)no1
categoryLabel: not fulfilled

cpdSmiles: N#Cc1cc(-c2ncc(F)c(O)n2)nn1Cc1ccccc1F
categoryLabel: fulfilled

cpdSmiles: Oc1nc(-c2cc(-c3ccon3)n(Cc3ncccc3F)n2)ncc1F
categoryLabel: fulfilled
